testSystem: RARg:RXRa (Homo sapiens, UniProt P13631;P19793 full;full)
Sequence (P13631 whole entry, chain 1 of 2): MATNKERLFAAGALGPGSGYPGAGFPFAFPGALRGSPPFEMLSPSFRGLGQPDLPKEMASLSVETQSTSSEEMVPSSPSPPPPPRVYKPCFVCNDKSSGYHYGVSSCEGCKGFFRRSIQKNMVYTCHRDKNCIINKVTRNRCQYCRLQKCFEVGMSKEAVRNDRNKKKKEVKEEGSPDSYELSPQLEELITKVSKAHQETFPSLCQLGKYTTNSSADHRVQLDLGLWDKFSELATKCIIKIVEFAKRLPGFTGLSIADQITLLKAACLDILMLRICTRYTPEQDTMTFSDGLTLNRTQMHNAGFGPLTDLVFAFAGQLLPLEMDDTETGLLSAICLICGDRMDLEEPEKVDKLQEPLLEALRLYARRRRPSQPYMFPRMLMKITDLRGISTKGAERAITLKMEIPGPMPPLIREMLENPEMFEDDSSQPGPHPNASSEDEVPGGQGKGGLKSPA
Sequence (P19793 whole entry, chain 2 of 2): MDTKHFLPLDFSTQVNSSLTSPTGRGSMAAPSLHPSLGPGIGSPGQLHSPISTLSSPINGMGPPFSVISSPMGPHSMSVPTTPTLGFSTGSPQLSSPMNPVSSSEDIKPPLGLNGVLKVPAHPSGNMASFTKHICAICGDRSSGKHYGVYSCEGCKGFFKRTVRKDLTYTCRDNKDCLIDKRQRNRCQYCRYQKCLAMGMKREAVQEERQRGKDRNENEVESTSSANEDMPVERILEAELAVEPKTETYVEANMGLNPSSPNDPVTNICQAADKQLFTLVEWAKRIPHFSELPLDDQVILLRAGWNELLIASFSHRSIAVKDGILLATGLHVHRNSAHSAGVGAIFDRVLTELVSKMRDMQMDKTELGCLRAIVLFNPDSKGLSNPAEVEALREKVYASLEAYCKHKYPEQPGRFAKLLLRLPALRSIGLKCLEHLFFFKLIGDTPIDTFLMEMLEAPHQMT
assayExplanation: no ligand; PBM; 270 nM : 90 nM RXRa; PBS pH 7.4, 2% milk, 0.02% Triton X-100, 1 mM DTT, BSA, 0.4 mg/ml salmon testes DNA
conditionContext: tags: His kept;His cleaved; copies: 1;1; label: surface-attached array probe
testReadout: binding signal

**Q:** // binding signal lookup, key: NRC3_wobSeed57_DR2_T19G_o1 (dsDNA) DNA 1: GCATCTCTAGGTAACAAGGTCAGTGAAAGAGAGGACGCGATTGACAGCGTAGAATGAAGG DNA 2: CCTTCATTCTACGCTGTCAATCGCGTCCTCTCTTTCACTGACCTTGTTACCTAGAGATGC
**A:** 3 PBM z-score against 500 random probes
